Assay system Sodium-dependent dopamine transporter (Homo sapiens, UniProt Q01959); read-out recorded as Ki.
Quantity kind: Ki (µM)

In [3]: df
Out[3]:
                                smiles_text  scale_unit  observed_value
0  CN1[C@H]2CC[C@@H]1[C@@H](c1ncc(-c3ccccc3)s1)[C@@H](c1ccc(Cl)cc1)C2          µM           0.018
1  COc1ccc(-c2cnc([C@H]3[C@@H](c4ccc(Cl)cc4)C[C@@H]4CC[C@H]3N4C)s2)cc1OC          µM           0.234
2  CN1[C@H]2CC[C@@H]1[C@@H](c1ncc(-c3cccc(Br)c3)s1)[C@@H](c1ccc(Cl)cc1)C2          µM           0.039
3  Cc1ccc([C@H]2C[C@@H]3CC[C@H]([C@H]2c2ncc(-c4ccc([N+](=O)[O-])cc4)s2)N3C)cc1          µM            0.14
